experiment: recombinant barcode read abundance after kanamycin selection (control-corrected) (log10(CPM+1)); higher = more efficient recombination; sequences stand for … in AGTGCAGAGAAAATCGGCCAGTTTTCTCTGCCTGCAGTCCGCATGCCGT…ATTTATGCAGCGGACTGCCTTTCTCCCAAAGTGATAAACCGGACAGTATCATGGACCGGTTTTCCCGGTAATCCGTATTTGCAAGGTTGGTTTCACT; site = the 11-nt target
Lab note: compare recombinant barcode read abundance (log10) against 0.2. Equal or greater, write 1. Smaller, write 0.

item sequence: AGGCCTCCTTGGGTTCTAACCTGTTGCCTGT [AGGCCTCCTAG_LTGcore_CT_RTGcore_AC] (site AGGCCTCCTAG) (LTG core: CT, RTG core: AC)
group: 0
--
item sequence: GAGGCCTCTTGGGTTCTAACCTGTTGCCAGC [GAGGCCTCTTG_LTGcore_CT_RTGcore_GC] (site GAGGCCTCTTG) (LTG core: CT, RTG core: GC)
group: 1
--
item sequence: GAGCCCAATTGGGTTCTAACCTGTTGCCTAT [GAGCCCACTAG_LTGcore_AT_RTGcore_AT] (site GAGCCCACTAG) (LTG core: AT, RTG core: AT)
group: 0
--
item sequence: AGGAGGTCATGGGTTCTAACCTGTTGCCTTG [AGGAGGTCTAG_LTGcore_CA_RTGcore_CA] (site AGGAGGTCTAG) (LTG core: CA, RTG core: CA)
group: 0

====

assay: recombinant barcode read abundance after kanamycin selection (control-corrected) (log10(CPM+1)); higher = more efficient recombination; sequences stand for … in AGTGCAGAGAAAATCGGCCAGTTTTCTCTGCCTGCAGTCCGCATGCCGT…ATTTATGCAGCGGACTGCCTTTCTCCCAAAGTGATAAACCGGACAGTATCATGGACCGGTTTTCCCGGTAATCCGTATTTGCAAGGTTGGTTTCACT; site = the 11-nt target
measure name: recombinant barcode read abundance (log10)

item sequence: GGGCGTGACTGGGTTCTAACCTGTTGCCTGT [GGGCGTGCTAG_LTGcore_AC_RTGcore_AC] (site GGGCGTGCTAG) (LTG core: AC, RTG core: AC)
number: 0.0793
--
item sequence: CATATTAGGTGGGTTCTAACCTGTTGCCTAG [CATATTACTAG_LTGcore_GG_RTGcore_CT] (site CATATTACTAG) (LTG core: GG, RTG core: CT)
number: 0.182
--
item sequence: CGGTCCCCTTGGGTTCTAACCTGTTGCCATC [CGGTCCCCTTG_LTGcore_CT_RTGcore_GA] (site CGGTCCCCTTG) (LTG core: CT, RTG core: GA)
number: 0.208
--
item sequence: TGTATTCTCTGGGTTCTAACCTGTTGCCTGA [TGTATTCCTAG_LTGcore_TC_RTGcore_TC] (site TGTATTCCTAG) (LTG core: TC, RTG core: TC)
number: 0.141
--
item sequence: TGATACCAATGGGTTCTAACCTGTTGCGTAG [TGATACCCTAC_LTGcore_AA_RTGcore_CT] (site TGATACCCTAC) (LTG core: AA, RTG core: CT)
number: 0.143

====

recombinant UMI read abundance (log10): recorded values
assay: recombinant UMI read abundance after kanamycin selection (control-corrected) (log10(CPM+1)); higher = more efficient recombination; extreme values may be limits of the assay; sequences stand for … in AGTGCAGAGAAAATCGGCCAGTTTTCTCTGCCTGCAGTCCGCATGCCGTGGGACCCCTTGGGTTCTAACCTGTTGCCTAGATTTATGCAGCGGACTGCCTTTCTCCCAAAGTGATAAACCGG…AGGTTGGTTTCACT; site = the 11-nt donor
measure name: recombinant UMI read abundance (log10)

item sequence: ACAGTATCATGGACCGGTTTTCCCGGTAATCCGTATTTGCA (site ACAGCATCTTA)
number: 0.00439

item sequence: TATTTGGCATGGACCGGTTTTCCCGGTAATCCGTATTTGTT (site TATTTGGCTGA)
number: 0

item sequence: GGATATACATGGACCGGTTTTCCCGGTAATCCGTATTTGCC (site GGATAAACTGG)
number: 0

item sequence: ACCTAGGCATGGACCGGTTTTCCCGGTAATCCGTATTTGGG (site ACCTAGTCTCC)
number: 0.0121

item sequence: AGCATTTCATGGACCGGTTTTCCCGGTAATCCGTATTTGAC (site AGCGTTTCTGT)
number: 0

item sequence: AGGAAGACATGGACCGGTTTTCCCGGTAATCCGTATTTGCG (site AGGAAGACTGG)
number: 0

item sequence: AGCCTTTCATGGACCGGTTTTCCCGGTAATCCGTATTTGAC (site AGCCTTTCTTT)
number: 0

item sequence: AGGATAACATGGACCGGTTTTCCCGGTAATCCGTATTTGCA (site AGGAAGACTTG)
number: 1.01

item sequence: AAGACGCCATGGACCGGTTTTCCCGGTAATCCGTATTTGAT (site AAGACGCCTAT)
number: 0.386

item sequence: GAATGCCCATGGACCGGTTTTCCCGGTAATCCGTATTTGCA (site GAATGGCCTTG)
number: 0

item sequence: CCGTGTGCATGGACCGGTTTTCCCGGTAATCCGTATTTGAC (site CCGTGTGCTGT)
number: 1

item sequence: AGCTCTACATGGACCGGTTTTCCCGGTAATCCGTATTTGAA (site AGCTCTACTTT)
number: 0

item sequence: CCAGTACCATGGACCGGTTTTCCCGGTAATCCGTATTTGCA (site ACAGTATCTTG)
number: 0

item sequence: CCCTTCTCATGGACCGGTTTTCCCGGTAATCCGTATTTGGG (site CTCTTCTCTCC)
number: 0.0147

item sequence: CGCGGAACATGGACCGGTTTTCCCGGTAATCCGTATTTGTT (site CGTGGAACTAA)
number: 0.00441

item sequence: TGTTCACCATGGACCGGTTTTCCCGGTAATCCGTATTTGAC (site TGTGCACCTGT)
number: 0

item sequence: TCTAATACATGGACCGGTTTTCCCGGTAATCCGTATTTGGC (site GCTAATACTGC)
number: 0

item sequence: AACAAACCATGGACCGGTTTTCCCGGTAATCCGTATTTGGT (site AACAAACCTAC)
number: 0

item sequence: CCATCTACATGGACCGGTTTTCCCGGTAATCCGTATTTGTG (site ACATCTACTCA)
number: 0.0369

item sequence: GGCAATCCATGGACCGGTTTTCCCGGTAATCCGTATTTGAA (site GACAATCCTTT)
number: 0

item sequence: AATGAAACATGGACCGGTTTTCCCGGTAATCCGTATTTGCT (site AATGCAACTAG)
number: 0.479

item sequence: GCGAAGCCATGGACCGGTTTTCCCGGTAATCCGTATTTGGT (site GCGAAGCCTGC)
number: 0

item sequence: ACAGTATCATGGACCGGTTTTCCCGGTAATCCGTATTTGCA (site CCAGTACCTTG)
number: 0.0123

item sequence: ATCCAAGCATGGACCGGTTTTCCCGGTAATCCGTATTTGAA (site ATCCAAGCTTT)
number: 1.29

item sequence: GAGGCACCATGGACCGGTTTTCCCGGTAATCCGTATTTGCA (site GGGGCACCTTG)
number: 0

item sequence: TGTGCACCATGGACCGGTTTTCCCGGTAATCCGTATTTGAC (site TGTTCACCTGT)
number: 0

item sequence: CACCCTACATGGACCGGTTTTCCCGGTAATCCGTATTTGGC (site CACCCTACTGC)
number: 2.59

item sequence: GGCATGACATGGACCGGTTTTCCCGGTAATCCGTATTTGCC (site GGCATGACTGG)
number: 0

item sequence: CCTATATCATGGACCGGTTTTCCCGGTAATCCGTATTTGTC (site CCTATATCTGA)
number: 0

item sequence: CTGCAGGCATGGACCGGTTTTCCCGGTAATCCGTATTTGAG (site CTGCAGGCTCT)
number: 1.5

item sequence: CCCTTTTCATGGACCGGTTTTCCCGGTAATCCGTATTTGGG (site CCCTTATCTCC)
number: 0.00602

item sequence: AGGACTACATGGACCGGTTTTCCCGGTAATCCGTATTTGAC (site AGGGCTACTGT)
number: 0

item sequence: CACGCGACATGGACCGGTTTTCCCGGTAATCCGTATTTGGC (site CACGCGACTGC)
number: 2.94

item sequence: GTAGGCGCATGGACCGGTTTTCCCGGTAATCCGTATTTGAC (site GTAGGCGCTGT)
number: 1.9

item sequence: CCTAAAACATGGACCGGTTTTCCCGGTAATCCGTATTTGAT (site CCTAAAACTAT)
number: 0

item sequence: GACTCCTCATGGACCGGTTTTCCCGGTAATCCGTATTTGCC (site CACTCCTCTGG)
number: 1.86
